Task for the reader: assign each of the following binders its reported CD73 surface reduction [%] on Colo201 cells, 24 h, flow cytometry.
Biological target: T1, cell-bound CD73 (human, UniProt P21589 27-549)
T1 sequence (looked up): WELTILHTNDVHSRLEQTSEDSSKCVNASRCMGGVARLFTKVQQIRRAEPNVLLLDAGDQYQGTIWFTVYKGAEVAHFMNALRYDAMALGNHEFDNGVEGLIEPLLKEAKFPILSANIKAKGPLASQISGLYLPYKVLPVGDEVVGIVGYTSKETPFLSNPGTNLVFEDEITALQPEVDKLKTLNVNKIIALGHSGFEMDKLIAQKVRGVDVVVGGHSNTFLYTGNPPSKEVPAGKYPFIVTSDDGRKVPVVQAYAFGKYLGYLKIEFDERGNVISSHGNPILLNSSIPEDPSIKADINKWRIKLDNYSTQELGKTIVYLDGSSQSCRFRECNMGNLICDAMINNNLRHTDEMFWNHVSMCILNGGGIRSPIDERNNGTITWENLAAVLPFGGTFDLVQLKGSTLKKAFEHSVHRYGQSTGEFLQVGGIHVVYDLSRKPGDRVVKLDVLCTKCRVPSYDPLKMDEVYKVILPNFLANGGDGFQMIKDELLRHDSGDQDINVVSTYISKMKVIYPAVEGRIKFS
Experiment: cell-based or functional assay
One number for each entry, in %.

# annotated cases, reported CD73 surface reduction [%] on Colo201 cells, 24 h, flow cytometry shown
binder	unitString	dataValue
B2 (antibody, human IgG1, kappa, L234A L235A, V domains shown, Humanized monoclonal antibody; also called anti-CD73 antibody B2) VH: EVQLVESGGGLVQPGGSLRLSCAASGLTFSSYVMSWVRQAPGKGLEWVSTISSGGVSTYYPDTVKGRFTISRDNSKNTLYLQMNSLRAEDTAVYYCAKRETARATGFAYWGQGTLVTVSA VL: DIQMTQSPSSLSASVGDRVTITCKASQSVSDDVTWYQQKPGKAPKLLIYYASNRYTGVPSRFSGSGSGTDFTFTISSVQPEDIATYYCQQDYSSPWTFGGGTKLEIKR	%	31
C4 (antibody, human IgG1, kappa, L234A L235A, V domains shown, Humanized monoclonal antibody; also called C04; inventive anti-CD73 antibody C4) VH: QVQLVQSGAEVKKPGDSVKVSCKASGYTFTTYWMHWVRQAPGQGLEWMGAIYPGLSDTTYNQKFKGKVTMTRDTSTSTVYMKLSSLRSEDTAVYYCARLLDYAMDYWGQGTLVTVSS VL: DIQMTQSPSSLSASVGDRVTITCRASQDIRSYLNWHQQKPGKAPKLLIWYTSRLHSGVPSRFSGSGSGTDYTLTISSLQPEDFATYFCQQGETLPWTFGQGTKLEIKR	%	15

For every record below, what is its CD73 surface reduction [%] on Colo201 cells, 24 h, flow cytometry?
1. C5 (antibody, human IgG1, kappa, L234A L235A, V domains shown, Humanized monoclonal antibody; also called anti-CD73 antibody C5) VH: QVQLVQSGAEVKKPGDSVKVSCKASGYTFTTYWMHWVRQAPGQGLEWMGAIYPGNSDTTYNQKFKGKVTMTRDTSTSTVYMKLSSLRSEDTAVYYCARLLDYAMDYWGQGTLVTVSS VL: DIQMTQSPSSLSASVGDRVTITCRASQDIRSYLNWHQQKPGKAPKLLIWYTSRLHSGVPSRFSGSGSGTDYTLTISSLEPEDFATYFCQQGETLPWTFGQGTKLEIKR
2. C6 (antibody, human IgG1, kappa, L234A L235A, V domains shown, Humanized monoclonal antibody; also called anti-CD73 antibody C6) VH: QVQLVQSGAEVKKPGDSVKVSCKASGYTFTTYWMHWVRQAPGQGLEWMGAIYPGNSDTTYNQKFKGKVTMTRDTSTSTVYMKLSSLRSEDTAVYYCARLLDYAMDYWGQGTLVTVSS VL: DIQMTQSPSSLSASVGDRVTITCRASQDIRNYLNWHQQKPGKAPKLLIWYTSRLHSGVPSRFSGSGSGTDYTLTISSLQPEDFATYFCQQGNTLPWTFGQGTKLEIKR

Marked response:
[19, 19]
